subject.of.test: T1, Human CD98, endogenous on HCC38, Molt-4 and Jurkat human cancer cells (human)
T1 chain: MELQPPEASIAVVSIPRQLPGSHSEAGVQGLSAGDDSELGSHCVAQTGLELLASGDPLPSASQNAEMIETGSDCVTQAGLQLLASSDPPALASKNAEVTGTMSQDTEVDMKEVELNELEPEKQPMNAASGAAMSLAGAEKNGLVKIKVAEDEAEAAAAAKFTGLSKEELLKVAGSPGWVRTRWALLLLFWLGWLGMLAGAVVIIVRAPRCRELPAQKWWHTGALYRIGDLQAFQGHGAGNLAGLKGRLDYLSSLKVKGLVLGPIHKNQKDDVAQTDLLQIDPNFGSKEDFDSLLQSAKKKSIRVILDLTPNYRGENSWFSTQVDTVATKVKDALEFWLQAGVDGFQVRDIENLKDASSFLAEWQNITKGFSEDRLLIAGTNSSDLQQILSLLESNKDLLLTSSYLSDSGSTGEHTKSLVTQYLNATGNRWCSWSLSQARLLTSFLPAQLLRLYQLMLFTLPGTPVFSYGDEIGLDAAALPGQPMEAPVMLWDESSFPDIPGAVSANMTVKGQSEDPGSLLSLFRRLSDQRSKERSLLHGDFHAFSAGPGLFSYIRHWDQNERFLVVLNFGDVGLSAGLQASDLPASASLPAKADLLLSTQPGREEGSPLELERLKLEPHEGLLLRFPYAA
test.summary: cell-based or functional assay
quantity.kind: ADC potency, IC50 (nM), Jurkat growth inhibition
Report the value in nM with no unit label.

binder	uom	endpoint.result
Ab14-CZ (Ab14 conjugated to Bcl-xL inhibitor synthon CZ) (antibody, V domains shown) VH: EVKLQQSGDELVRPGASVKISCKASGYTFTSYSMHWVKERPGQGLEWIGAIFPIIGTTEYNQKFKGKATLTADKSSNTANMELSRLTSEDSAVYYCARVYLSYFDYWGQGVMVTVSS VL: DIQMTQSPSFLSASVGDRVTINCKASQNINKYLDWYQRKHGEAPKLLIYNTNNLQTGIPSRFSGSGSGTDYTLTISSLQPEDVATYFCLQHSSRYTFGAGTKLELK	nM	0.063
Ab6-CZ (Ab6 conjugated to Bcl-xL inhibitor synthon CZ) (antibody, V domains shown) VH: QVQLKESGPGLAQPSQTLSLTCTVSGFSLSTYGVIWLRQPPGKGLEWMGVIWTNGNTNYNSTLKSRLSISRDTSESQVYLQMNSLQTEDTATYYCARHYYDGAYYYGYFDYWGQGVMVTVSS VL: DIVMTQTPSSQAVSAGEKVTMSCKSSQSLLYSENKKNYLAWYQQKPGQSPKLLIYWASTRESGVPDRFIGSGSGTDFTLTISSVQAEDLAVYYCQQYYYFPYTFGAGTKLELK	nM	0.086
Ab8-CZ (Ab8 conjugated to Bcl-xL inhibitor synthon CZ) (antibody, V domains shown) VH: EVQLVESGGGLVQPGRSLKLSCAASGFTFSDYAMAWVRQAPKKGLEWVASIIYDGRGTYYRDSVKGRFTISRDNAKSTLYLQMDSLRSEDTATYYCARQGDGTYYYWGYFDYWGQGVMVTVSS VL: DIVMTQSPSSLAVSAGETVTINCKSSQSLLSSGNQKNYLAWYQQKPGQSPKLLIYWASTRQSGVPDRFIGSGSGTDFTLTINSVQAEDLAIYYCQQYYDTPYTFGAGTKLELK	nM	0.121
Ab9-CZ (Ab9 conjugated to Bcl-xL inhibitor synthon CZ) (antibody, V domains shown) VH: QVQLKESGPGLVQPSQTLSLTCAVSGFSLSNYGVIWVRQPPGKGLEWMAVIWTNGNTNYNSTLKSRLSISRDTSKSQVYLKMNSLQTEDTATYYCARHYYDGTYYYGYFDYWGQGVMVTVSS VL: DIVMTQTPSSQAVSAGEKVTMSCKSSQSLLYTENKKNYLAWYQQKPGQSPKLLIYWASTRESGVPDRFMGSGSGTDFTLTISSVQAEDLAVYYCQQYYYFPYMFGAGTKLELK	nM	0.092

Can you look up the measured ADC potency, IC50 (nM), Jurkat growth inhibition of Ab1-CZ (Ab1 conjugated to Bcl-xL inhibitor synthon CZ) (antibody, V domains shown) VH: EVKLVESGGGLVQPGGSLRLSCATSGFTFTDYYMSWVRQPPGKALEWLGFIRNPANVYTTEYSASVKGRFTISRDNSQSILYLQMNTLRAEDSATYYCARASYGNSEGWFAYWGQGTLVTVSA VL: DIVMSQSPSSLAVSVGEKVTMSCKSSQNLLYNNNQKNYLAWYQQKPGQSPKLLIYWASTRESGVPDRFTGSGSGTDFTLTISSVKAEDLAVYYCQQYYSYPRTFGGGTKLEIK for me?
0.05

Origin of measurements: patent US20200121803A1
